Attribution: patent US20260265248A1

Reported IC50 values for a set of compounds
molecular target: PD-1/PD-L1 (Homo sapiens, UniProt Q9NZQ7); construct: purchased CisBio; assay: PD1-PDL1 HTRF assay; conditions: PD-1/PD-L1 homogenous time-resolved fluorescence (HTRF) binding assay; Tag1-PDL1 5 nM, Tag2-PD1 50 nM
Sequence (Q9NZQ7 19-238 limits assumed): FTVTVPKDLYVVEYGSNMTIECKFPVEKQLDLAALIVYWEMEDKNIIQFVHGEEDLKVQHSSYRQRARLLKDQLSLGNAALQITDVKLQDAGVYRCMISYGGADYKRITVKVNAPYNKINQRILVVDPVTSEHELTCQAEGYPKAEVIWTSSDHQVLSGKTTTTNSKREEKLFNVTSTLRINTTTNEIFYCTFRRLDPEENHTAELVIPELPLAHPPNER

# COMPOUND, IC50
records = [
    ("Cc1c(-c2ccc3c(c2)OCCO3)cccc1-c1ccn2c(-c3ccc(CN4CCC[C@H]4C(=O)O)cc3)cnc2c1 [Example 37]", "100 to 1000 nM"),
    ("OCCNCc1nc2cc(-c3cccc(-c4cccc(-c5ccc(CN6CCC[C@H]6CO)cc5)c4Cl)c3Cl)ccn2n1", "≤ 10 nM"),
    ("OCCNCc1ccc(-c2cccc(-c3cccc(-c4ccn5c(CNCCO)nnc5c4)c3Cl)c2Cl)cc1", "≤ 10 nM"),
    ("Cc1c(-c2ccccc2)cccc1-c1ccn2c(C#CCN3CCC[C@H]3C(=O)O)cnc2c1", "100 to 1000 nM"),
    ("Cc1c(-c2ccc3c(c2)OCCO3)cccc1-c1ccn2c(-c3ccc(CNC[C@@H](O)CO)cc3)cnc2c1", "100 to 1000 nM"),
    ("Cc1c(-c2ccccc2)cccc1-c1ccn2c(-c3ccc(CN4CCOCC4C(=O)O)cc3)cnc2c1 (centres unmarked)", "100 to 1000 nM"),
    ("O=C1CC[C@@H](CNCc2ccc(-c3cccc(-c4cccc(-c5ccn6nc(CNC[C@@H]7CCC(=O)N7)nc6c5)c4Cl)c3Cl)cc2)N1", "≤ 10 nM"),
    ("Cc1c(-c2ccc3c(c2)OCCO3)cccc1-c1ccn2c(-c3ccc(CN4CCC[C@@H]4C(=O)O)cc3)cnc2c1", "100 to 1000 nM"),
    ("Cc1c(-c2ccc(CNCCO)cc2)cccc1-c1cccc(-c2ccn3c(CNCCO)nnc3c2)c1C", "10 to 100 nM"),
    ("Cc1c(-c2ccn3c(-c4ccc(CN5CCC[C@@H]5C(=O)O)cc4)nnc3c2)cccc1-c1cccc(-c2ccn3c(-c4ccc(CN5CCC[C@@H]5C(=O)O)cc4)nnc3c2)c1C", "10 to 100 nM"),
    ("Cc1c(-c2ccc(CNCCO)cc2)cccc1-c1cccc(-c2ccn3nc(CNCCO)nc3c2)c1C", "10 to 100 nM"),
    ("Cc1c(NC(=O)c2ccc(CNCCO)cn2)cccc1-c1cccc(-c2ccn3c(-c4ccc(CN5CCC[C@@H]5C(=O)O)cc4)nnc3c2)c1C", "≤ 10 nM"),
    ("Cc1c(-c2ccn3c(-c4ccc(CN5CCC[C@@H]5C(=O)O)cc4)nnc3c2)cccc1-c1cccc(-c2cnc(CNCCO)cn2)c1C", "10 to 100 nM"),
    ("Cc1c(-c2ccc(CNCCO)cc2)cccc1-c1cccc(-c2ccn3c(-c4ccc(CN5CCC[C@@H]5C(=O)O)cc4)nnc3c2)c1C", "≤ 10 nM"),
]

---

molecular target: PD-1/PD-L1 (Homo sapiens, UniProt Q9NZQ7); test: PD1-PDL1 HTRF assay; settings: PD-1/PD-L1 homogenous time-resolved fluorescence (HTRF) binding assay; Tag1-PDL1 5 nM, Tag2-PD1 50 nM
pIC50: −log10 of the molar value.

# COMPOUND, pIC50
rows = [
    ("Cc1c(-c2ccccc2)cccc1-c1ccn2c(-c3ccc(CN4CCC[C@H]4C(=O)O)cc3)nnc2c1", "6.00 to 7.00"),
    ("Cc1c(-c2ccccc2)cccc1-c1ccn2c(-c3ccc(CN4CCC[C@H]4C(=O)O)cc3)cnc2c1 [Example 2]", "7.00 to 8.00"),
    ("Cc1c(-c2ccc(CNC[C@@H]3CCC(=O)N3)cc2)cccc1-c1cccc(-c2ccn3c(CNC[C@@H]4CCC(=O)N4)nnc3c2)c1C", "≥ 8.00"),
    ("Cc1c(-c2ccccc2)cccc1-c1ccn2c(-c3ccc(CN4CC(C(=O)O)C4)cc3)cnc2c1", "6.00 to 7.00"),
    ("Cc1c(-c2ccn3c(CNCCO)nnc3c2)cccc1-c1cccc(-c2ccn3c(CNCCO)nnc3c2)c1C", "6.00 to 7.00"),
    ("Cc1c(-c2ccc(CNCCO)cc2)cccc1-c1cccc(-c2ccn3c(CN4CCC[C@@H]4C(=O)O)nnc3c2)c1C", "7.00 to 8.00"),
    ("COc1cc(-c2cnc3cc(-c4cccc(-c5ccccc5)c4C)ccn23)cc(OC)c1CN1CCCC1C(=O)O (centres unmarked)", "6.00 to 7.00"),
    ("Cc1c(-c2ccc(CNCCO)cc2)cccc1-c1cccc(-c2ccn3c(CNC[C@@H]4CCC(=O)N4)nnc3c2)c1C", "7.00 to 8.00"),
    ("Cc1c(-c2ccc3c(c2)OCCO3)cccc1-c1ccn2c(-c3ccc(CN4CC[C@H]4C(=O)O)cc3)cnc2c1", "6.00 to 7.00"),
    ("Cc1c(NC(=O)c2ccc(CNC[C@H]3CCC(=O)N3)cn2)cccc1-c1cccc(-c2ccn3c(-c4ccc(CNC[C@H]5CCC(=O)N5)cc4)nnc3c2)c1C", "7.00 to 8.00"),
    ("Cc1c(-c2ccc3c(c2)OCCO3)cccc1-c1ccn2c(-c3ccc(CN4CC[C@@H]4C(=O)O)cc3)cnc2c1", "6.00 to 7.00"),
    ("Cc1c(-c2ccccc2)cccc1-c1ccn2c(-c3ccc(CN4CC[C@H]4C(=O)O)cc3)cnc2c1", "6.00 to 7.00"),
    ("OCCNCc1ccc(-c2cccc(-c3cccc(-c4ccn5c(-c6ccc(CNCCO)cc6)nnc5c4)c3Cl)c2Cl)cc1", "7.00 to 8.00"),
    ("COc1cc(-c2cccc(-c3cccc(-c4ccn5c(-c6ccc(CNCCO)cc6)nnc5c4)c3C)c2C)ccc1CNCCO", "≥ 8.00"),
]

---

Molecular target: PD-1/PD-L1 (Homo sapiens, UniProt Q9NZQ7)
Assay: PD1-PDL1 HTRF assay
Details: PD-1/PD-L1 homogenous time-resolved fluorescence (HTRF) binding assay; Tag1-PDL1 5 nM, Tag2-PD1 50 nM
From the text: The CisBio HTRF assay kit, purchased from CisBio only, was employed to determine the IC50 values of compounds. The PD1-PDL1 HTRF assay measures the interactions between the two proteins, PD1 and PDL1. The interaction is detected by using anti-Tag1 labeled with Europium (HTRF donor) which binds to PDL1 and anti-Tag2 labeled with XL665 (HTRF acceptor) which binds to PD1. […]
pIC50: −log10 of the molar value.
Reported pIC50 values for a set of compounds

# COMPOUND, pIC50
records = [
    ("Cc1c(-c2ccccc2)cccc1-c1ccn2c(-n3ccc(C(=O)NCC(=O)O)n3)cnc2c1", "6.00 to 7.00"),
    ("Cc1c(-c2ccccc2)cccc1-c1ccn2c(-c3ccc(CN4CCC[C@@H]4C(=O)O)cc3)cnc2c1", "6.00 to 7.00"),
    ("Cc1c(-c2ccccc2)cccc1-c1ccn2c(-c3ccc(CNCCC(=O)O)cc3)cnc2c1", "6.00 to 7.00"),
    ("Cc1c(-c2ccc(CNCCO)cc2)cccc1-c1cccc(-c2ccn3c(-c4ccc(CN5CC[C@@H](C(=O)O)C5)cc4)nnc3c2)c1C", "7.00 to 8.00"),
    ("Cc1c(-c2ccccc2)cccc1-c1ccn2c(-c3ccc(CN4CCC[C@H]4C(=O)O)cc3)cnc2c1 [Example 10]", "6.00 to 7.00"),
    ("COc1nc(-c2cccc(-c3cccc(-c4ccc5nnc(CNC[C@@H]6CCC(=O)N6)n5c4)c3C)c2C)cnc1CNC[C@@H]1CCC(=O)N1", "≥ 8.00"),
    ("Cc1c(-c2ccc3c(c2)OCCO3)cccc1-c1ccn2c(-c3ccc(CNC[C@H](O)CO)cc3)cnc2c1", "6.00 to 7.00"),
    ("OCCCNCc1ccc(-c2cccc(-c3cccc(-c4ccn5nc(CNCCO)nc5c4)c3Cl)c2Cl)cc1", "≥ 8.00"),
    ("Cc1c(-c2ccccc2)cccc1-c1ccn2c(-c3ccc(CN[C@H](C(=O)O)C(C)C)cc3)cnc2c1", "6.00 to 7.00"),
    ("COc1cc(-c2cnc3cc(-c4cccc(-c5ccccc5)c4C)ccn23)cc(OC)c1CN1CCC[C@H]1C(=O)O", "6.00 to 7.00"),
    ("Cc1c(-c2ccc3c(c2)OCCO3)cccc1-c1ccn2c(-c3ccc(CN4CCCCC4C(=O)O)cc3)cnc2c1 (stereo not drawn)", "6.00 to 7.00"),
    ("COc1nc(-c2cccc(-c3cccc(-c4ccn5c(-c6ccc(CNCCO)cc6)nnc5c4)c3C)c2C)ccc1CNCCO", "≥ 8.00"),
    ("Cc1c(-c2ccccc2)cccc1-c1ccn2c(-c3ccc(CNCCO)cc3)nnc2c1", "6.00 to 7.00"),
    ("Cc1c(-c2ccc3c(c2)OCCO3)cccc1-c1ccn2c(-c3ccc(CN4CC(C(=O)O)C4)cc3)cnc2c1", "6.00 to 7.00"),
    ("Cc1c(-c2ccccc2)cccc1-c1ccn2c(-c3ccc(CNC4(C(=O)O)COC4)cc3)cnc2c1", "6.00 to 7.00"),
]
